This listing pairs molecules with measured pKi.
Protocol Notes: Binding affinity to alpha-2delta calcium channel
pKi: −log10 of the molar value.

- Molecule: "NCC(Cc1ccccc1)(Cc1ccccc1)c1nnn[nH]1"
  Comparator: "<"
  pKi: 5.00
- Molecule: "CC(C)(CN)c1nnn[nH]1"
  Comparator: "<"
  pKi: 5.00
- Molecule: "NCC(c1ccccc1)c1nnn[nH]1 (configuration not stated)"
  Comparator: "<"
  pKi: 5.00
- Molecule: "CCCCCCC(CN)c1nnn[nH]1 (configuration not stated)"
  Comparator: "="
  pKi: 6.48
- Molecule: "NCCc1nnn[nH]1"
  Comparator: "<"
  pKi: 5.00
- Molecule: "NCC(CCCCc1ccccc1)c1nnn[nH]1 (configuration not stated)"
  Comparator: "="
  pKi: 6.89
- Molecule: "CC(CN)(Cc1ccc(F)c(F)c1)c1nnn[nH]1 (configuration not stated)"
  Comparator: "="
  pKi: 6.28

From: ChEMBL document CHEMBL1138898
